Experiment: chemical genetic growth profiling, strain panel (AID 1159580);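 also: tested at 20 µM; growth read once vehicle control cultures reached saturation at 30 °C; 1 = growth at the plate median or of vehicle wells; lower values mean less growth of the strain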
Conditions: S. cerevisiae deletion strains, growth OD, locus YPR141C, strain kar3, active compounds read low
The whole screen tested about 5,500 compounds, of which about 2,000 (36%) were called active. About 18% were inconclusive and are not listed. The list shows a part of the results.
I'd be grateful if you could share measured normalized growth for these entries.
Form rule: numeric answer, no unit written next to it.

**Q:** Kindly indicate its recorded normalized growth. Item: COc1ccc2c(c1)CCC1C2CCC2(C)C1C[C@@H](O)C2O (stereo not given in full)
**A:** 0.993

**Q:** Kindly indicate its recorded normalized growth. Item: COc1ccc2c(c1)CCC1C2CC[C@@]2(C)C1CC[C@@H]2O (stereo not given in full)
**A:** 0.967

**Q:** Kindly indicate its recorded normalized growth. Item: CC12CCC3c4ccc(OCc5ccccc5)cc4CCC3C1C[C@@H](O)[C@@H]2O (stereo not given in full)
**A:** 0.106

**Q:** Kindly indicate its recorded normalized growth. Item: C[C@]12CCC3c4ccc(OS(=O)(=O)O)cc4CCC3C1CC[C@H]2O (stereo not given in full)
**A:** 0.984

**Q:** Kindly indicate its recorded normalized growth. Item: C[C@]12CCC3c4ccc(O)cc4CCC3C1C[C@@H](O)[C@@H]2O (stereo not given in full)
**A:** 0.989

---

Experiment: chemical genetic growth profiling, strain panel (AID 1159580);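 also: tested at 20 µM; growth read once vehicle control cultures reached saturation at 30 °C; 1 = growth at the plate median or of vehicle wells; lower values mean less growth of the strain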
Settings: S. cerevisiae deletion strains, growth OD, locus YNL233W, strain BNI4, active compounds read low
Among all 5,500 compounds or so, about 2,000 (36%) were called active. Another 18% or so got no clear call; they are omitted. Some of the results follow.
property_label: normalized growth
Form rule: numeric answer, no unit written next to it.

**Q:** Kindly indicate its recorded normalized growth. Item: CC1(C)C2CC(=O)[C@]3(C)C(CC[C@@]4(C)[C@H](c5ccoc5)OC(=O)[C@H]5O[C@]543)[C@@]2(C)C(=O)C[C@H]1O (stereo partly specified)
**A:** 1.04

**Q:** Kindly indicate its recorded normalized growth. Item: NC(=O)NCC(N)C(=O)O (stereo unspecified)
**A:** 1.03

**Q:** Kindly indicate its recorded normalized growth. Item: NC(=O)NCCCC(N)C(=O)O (stereo unspecified)
**A:** 1.02

**Q:** Kindly indicate its recorded normalized growth. Item: `COc1ccc(-c2oc3c(CC=C(C)C)c(O[C@@H]4O[C@H](CO)[C@@H](O)[C@H](O)[C@H]4O)cc(O)c3c(=O)c2O[C@@H]2O[C@@H](C)[C@H](O)[C@@H](O)[C@H]2O)cc1`
**A:** 0.99

**Q:** Kindly indicate its recorded normalized growth. Item: `CC(=O)OCC1=C(C(=O)O)N2C(=O)[C@@H](NC(=O)Cc3cccs3)[C@H]2SC1`
**A:** 1.03

**Q:** Kindly indicate its recorded normalized growth. Item: CC1(C)C(=O)C=C[C@@]2(C)C1C[C@@H](O)[C@]1(C)C2CC[C@@]2(C)[C@H](c3ccoc3)OC(=O)[C@H]3O[C@]321 (stereo partly specified)
**A:** 1.01

**Q:** Kindly indicate its recorded normalized growth. Item: COC(=O)C[C@H]1C(C)(C)C2(Cl)O[C@@]34CC2C(=O)[C@]1(C)C3CC[C@]1(C)C4=CC(=O)O[C@H]1c1ccoc1 (stereo partly specified)
**A:** 0.995

**Q:** Kindly indicate its recorded normalized growth. Item: `O=C(O[C@@H]1Cc2c(O)cc(O)cc2O[C@@H]1c1cc(O)c(=O)c2c(O)c(O)cc([C@H]3Oc4cc(O)cc(O)c4C[C@H]3O)c2c1)c1cc(O)c(O)c(O)c1`
**A:** 0.623

**Q:** Kindly indicate its recorded normalized growth. Item: C[C@@H]1O[C@@H](OC[C@H]2OC(Oc3c(-c4ccc(O)c(O)c4)oc4cc(O)cc(O)c4c3=O)[C@H](O)[C@@H](O)[C@@H]2O)[C@H](O)[C@H](O)[C@H]1O (stereo partly specified)
**A:** 1.02

**Q:** Kindly indicate its recorded normalized growth. Item: CC12CCC3c4ccc(OCc5ccccc5)cc4CCC3C1C[C@@H](O)[C@@H]2O (stereo partly specified)
**A:** 0.0603

**Q:** Kindly indicate its recorded normalized growth. Item: CC(C)(C)NCC(O)c1cc(O)cc(O)c1 (stereo unspecified)
**A:** 0.993

**Q:** Kindly indicate its recorded normalized growth. Item: CC1(C)C(=O)C=C[C@@]2(C)C1C=C[C@]1(C)C2CC[C@@]2(C)[C@H](c3ccoc3)OC(=O)C3OC321 (stereo partly specified)
**A:** 0.955

**Q:** Kindly indicate its recorded normalized growth. Item: `COc1cc(OC)c2c(=O)c(O)c(-c3ccc(OC)c(OC)c3)oc2c1`
**A:** 0.601

**Q:** Kindly indicate its recorded normalized growth. Item: C[C@]12CCC3c4ccc(O)cc4CCC3C1CC[C@@H]2O (stereo partly specified)
**A:** 0.997

**Q:** Kindly indicate its recorded normalized growth. Item: C[C@]12CCC3c4ccc(OS(=O)(=O)O)cc4CCC3C1CC[C@H]2O (stereo partly specified)
**A:** 0.998

**Q:** Kindly indicate its recorded normalized growth. Item: `C=C(C)[C@H]1COc2cc3oc(=O)ccc3cc2O1`
**A:** 0.408

**Q:** Kindly indicate its recorded normalized growth. Item: CC12CCC3c4ccc(OC(=O)c5ccccc5)cc4CCC3C1CCC2O (stereo unspecified)
**A:** 0.97

**Q:** Kindly indicate its recorded normalized growth. Item: CC(C)c1c(O)ccc2c1CCC1[C@@](C)(C=O)CCC[C@]21C (stereo partly specified)
**A:** 0.172

**Q:** Kindly indicate its recorded normalized growth. Item: CC(C)C1COc2cc3oc(=O)ccc3cc2O1 (stereo unspecified)
**A:** 0.285

**Q:** Kindly indicate its recorded normalized growth. Item: `CCCCCCCCCCCC1=C(O)C(=O)C=C(O)C1=O`
**A:** 0.857

**Q:** Kindly indicate its recorded normalized growth. Item: COc1ccc2c(c1)CCC1C2CCC2(C)C1C[C@@H](O)C2O (stereo partly specified)
**A:** 0.989

**Q:** Kindly indicate its recorded normalized growth. Item: COC(=O)C1OC(=O)C2OC23C1(C)CCC1C2(C)C(OC(C)=O)CC(OC(C)=O)C(C)(C)C2CC(=O)C13C (stereo unspecified)
**A:** 1.01

**Q:** Kindly indicate its recorded normalized growth. Item: `O=c1c(O)c(-c2ccc(O)c(O)c2)oc2cc(O)cc(O)c12`
**A:** 0.859

**Q:** Kindly indicate its recorded normalized growth. Item: CNC(C)C(O)c1ccccc1 (stereo unspecified)
**A:** 1

**Q:** Kindly indicate its recorded normalized growth. Item: `COc1cc(O)c2c(=O)c(O)c(-c3ccc(O)c(O)c3)oc2c1`
**A:** 0.894

**Q:** Kindly indicate its recorded normalized growth. Item: CN[C@@H]1C(O)[C@@H](O[C@@H]2[C@@H](O)[C@H](O[C@H]3OC(CN)=CC[C@H]3N)[C@@H](N)C[C@H]2N)OC[C@]1(C)O (stereo partly specified)
**A:** 1.02

**Q:** Kindly indicate its recorded normalized growth. Item: `CCc1cccc(CC)c1N(COC)C(=O)CCl`
**A:** 1.01

**Q:** Kindly indicate its recorded normalized growth. Item: `O=c1c(O)c(-c2ccc(O)cc2O)oc2cc(O)cc(O)c12`
**A:** 0.988

**Q:** Kindly indicate its recorded normalized growth. Item: CC(C1OC(C)(C)C(O)C1O)[C@@H]1CC[C@]2(C)C3=CCC4C(C)(C)C(=O)CC[C@]4(C)C3CC[C@@]12C (stereo partly specified)
**A:** 0.867

**Q:** Kindly indicate its recorded normalized growth. Item: `COc1ccc(-c2cc(=O)c3c(O)cc(O[C@@H]4O[C@H](CO[C@H]5O[C@H](C)[C@@H](O)[C@H](O)[C@@H]5O)[C@@H](O)[C@H](O)[C@H]4O)cc3o2)cc1O`
**A:** 1.01

**Q:** Kindly indicate its recorded normalized growth. Item: `O=C(O[C@@H]1Cc2c(O)cc(O)cc2O[C@@H]1c1cc(O)c(=O)c2c(O)c(O)cc([C@H]3Oc4cc(O)cc(O)c4C[C@H]3OC(=O)c3cc(O)c(O)c(O)c3)c2c1)c1cc(O)c(O)c(O)c1`
**A:** 0.768

**Q:** Kindly indicate its recorded normalized growth. Item: CC(C)N(CCC(C(N)=O)(c1ccccc1)c1ccccn1)C(C)C (stereo unspecified)
**A:** 0.972

**Q:** Kindly indicate its recorded normalized growth. Item: `O=C(O)C1=C[C@@H](O)[C@@H](O)[C@H](O)C1`
**A:** 1.03

**Q:** Kindly indicate its recorded normalized growth. Item: CO[C@@]1(NC(=O)C(C(=O)O)c2ccc(O)cc2)C(=O)N2C(C(=O)O)=C(CSc3nnnn3C)CO[C@@H]21 (stereo partly specified)
**A:** 1.01

**Q:** Kindly indicate its recorded normalized growth. Item: O=C1C=C2C(=CCOC2O)O1 (stereo unspecified)
**A:** 0.81

**Q:** Kindly indicate its recorded normalized growth. Item: `CC[n+]1c(-c2ccccc2)c2cc(N)ccc2c2ccc(N)cc21`
**A:** 0.841
